- assay-remarks: in vitro
- Format: cell-based
- run-parameters: human
- Procedure: The efficacy of certain compounds as protective agents when co-administered with 5-FU was tested in cell culture. […] The relative viability of the cells was determined after 120 hours.
value-kind: viability at 120 h, 0.01 mM

Which viability at 120 h, 0.01 mM is listed for O=c1[nH]cc(F)c(=O)[nH]1 [5-FU, 5-fluorouracil, reference compound] ?
< 50%
